Each recorded value in this set is attributed to paper PMC10397247.

- SYSTEM TESTED: T1, APC9291-AA
- T1 chain: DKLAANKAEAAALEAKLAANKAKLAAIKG
- PROCEDURE SUMMARY: two-hybrid library CCmax;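 further: natural log of median RNA to DNA barcode read ratio; higher means stronger binding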
- CONDITION SUMMARY: mean of both orientations
MEASURED ENDPOINT: interaction score
Give bare numbers.

binder="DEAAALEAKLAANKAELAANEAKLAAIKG [APC2981-AA]" measured_endpoint="interaction score" measured_value=-1.74

Dear colleague, could you send me interaction score for each of the items below? Thanks.
1. DELAANEAENAALEAELAAIEAKLAAIKG [APC8401-AA]
2. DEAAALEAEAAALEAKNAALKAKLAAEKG [APC2257-AA]
3. DKAAALKAELAANEAELAANEAKLAAIKG [APC3881-AA]
4. DELAANEAKNAALKAKLAAIKAELAAEEG [APC8516-AA]
5. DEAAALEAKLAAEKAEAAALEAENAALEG [APC2724-AA]
6. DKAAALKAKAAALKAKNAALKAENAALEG [APC3354-AA]

1. -1.42
2. -1.61
3. -2.12
4. -1.91
5. -1.76
6. -1.68
